Where do these numbers come from? They come from patent US9708336B2.

Documented pIC50 across a set of compounds
- System Tested: IMP-1 (Serratia marcescens, UniProt P52699)
- Sequence (P52699 whole entry, looked up): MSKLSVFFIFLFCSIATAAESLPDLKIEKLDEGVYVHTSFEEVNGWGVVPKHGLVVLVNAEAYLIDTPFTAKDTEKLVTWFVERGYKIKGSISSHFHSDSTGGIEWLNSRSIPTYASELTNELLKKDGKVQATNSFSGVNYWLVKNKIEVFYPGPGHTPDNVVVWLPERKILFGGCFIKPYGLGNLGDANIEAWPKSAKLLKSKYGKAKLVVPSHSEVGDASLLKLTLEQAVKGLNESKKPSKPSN
- Assay Remarks: biochemical
- Format: biochemical
- Particulars: fluorescence assay with CCF2-FA substrate; read-out: IMP-1 IC50
// scale note: pIC50 = -log10(conc_M); give the bare number

Please review the entries below; each comes with its answer.
# Compound, Measured Result
records = [
    ("CS(=O)(=O)CCn1cc(-c2cccc(S(N)(=O)=O)c2-c2nn[nH]n2)cn1", 6.69),
    ("NS(=O)(=O)c1c(C(F)(F)F)ccc(N2CCCC(CCCO)C2)c1-c1nnn[nH]1 (stereo not shown)", 7.94),
    ("NC1CCC(N2CCC(c3ccc(-c4ccc(C(F)(F)F)c(S(N)(=O)=O)c4-c4nnn[nH]4)cc3)CC2)C1 (stereo not shown)", 8.68),
    ("NS(=O)(=O)c1c(C(F)(F)F)ccc(-c2cnc3ccccn23)c1-c1nnn[nH]1", 8.90),
    ("NC1(CN2CC(c3ccc(-c4ccc(C(F)(F)F)c(S(N)(=O)=O)c4-c4nnn[nH]4)cc3)C2)CC1", 8.12),
    ("CNC1CC(N2CCC(c3ccc(-c4ccc(C(F)(F)F)c(S(N)(=O)=O)c4-c4nnn[nH]4)cc3)CC2)C1 (stereo not shown)", 8.98),
]

Data request: Provide one value: measured pIC50 of Nc1nnc(C2CCN(c3ccnc(S(N)(=O)=O)c3-c3nnn[nH]3)CC2)s1
Data returned: 6.34

Data request: Provide one value: measured pIC50 of NCCN1CC(c2ccc(-c3ccc(C(F)(F)F)c(S(N)(=O)=O)c3-c3nnn[nH]3)cc2)C1
Data returned: 8.24

Data request: Provide one value: measured pIC50 of NS(=O)(=O)c1cccc(-c2ccc3ccncc3c2)c1-c1nn[nH]n1
Data returned: 7.10

Data request: Provide one value: measured pIC50 of NS(=O)(=O)c1cccc(-c2cccc(F)n2)c1-c1nn[nH]n1
Data returned: 6.10

Data request: Provide one value: measured pIC50 of NS(=O)(=O)c1cccc(CCC2CCCCC2)c1-c1nnn[nH]1
Data returned: 8.26

Data request: Provide one value: measured pIC50 of NCCC1CCC(N2CCC(c3ccc(-c4ccc(C(F)(F)F)c(S(N)(=O)=O)c4-c4nnn[nH]4)cc3)CC2)CC1 (stereo not shown)
Data returned: 8.81

====

- Test system: Serratia marcescens expressing IMP-1 (CL5741)
- Assay Remarks: Antibiotic potentiation activity: synergistic concentration (MITC95) with imipenem, OD600 growth
- Type: cell-based
- Particulars: concentration giving 95% inhibition of bacterial growth
- Description: Antibiotic Potentiation Activity: Determination of Synergistic Concentration The bacterial strains tested included the clinical strains Escherichia coli expressing NDM-1 (CLB30005, CLB30016), Serratia marcescens expressing IMP-1 (CL5741), and Klebsiella pneumoniae expressing VIM-1 (IHMA599644) Inhibitor activity was measured in the presence and absence of imipenem in a 384-well microplate. […]
Returns yes if the recorded Serratia marcescens expressing IMP-1 (CL5741) MITC95 is greater than or equal to 20 µM, and no otherwise.

# Compound, System Tested, Category
records = [
    ("Cc1nccn1-c1nc(-c2cccc(S(N)(=O)=O)c2-c2nn[nH]n2)cs1", "Serratia marcescens expressing IMP-1 (CL5741)", "yes"),
]

Data request: Has NS(=O)(=O)c1cccc(-c2cc(F)cc(F)c2)c1-c1nnn[nH]1 a recorded Serratia marcescens expressing IMP-1 (CL5741) MITC95 greater than or equal to 20 µM?
Data returned: no

Data request: Has NS(=O)(=O)c1nccc(-c2cccnc2)c1-c1nnn[nH]1 a recorded Serratia marcescens expressing IMP-1 (CL5741) MITC95 greater than or equal to 20 µM?
Data returned: yes

Data request: Has NC1CCC(c2cccc(S(N)(=O)=O)c2-c2nn[nH]n2)CC1 (stereo not shown) a recorded Serratia marcescens expressing IMP-1 (CL5741) MITC95 greater than or equal to 20 µM?
Data returned: no

Data request: Has NS(=O)(=O)c1cccc(-c2cccc(S(N)(=O)=O)c2-c2nnn[nH]2)c1 a recorded Serratia marcescens expressing IMP-1 (CL5741) MITC95 greater than or equal to 20 µM?
Data returned: no

Data request: Has NS(=O)(=O)c1cccc(-c2ccc(S(=O)(=O)NC3CC3)cc2)c1-c1nn[nH]n1 a recorded Serratia marcescens expressing IMP-1 (CL5741) MITC95 greater than or equal to 20 µM?
Data returned: no

Data request: Has NS(=O)(=O)c1cccc(-c2ccc(C(=O)N3CCOCC3)cc2)c1-c1nn[nH]n1 a recorded Serratia marcescens expressing IMP-1 (CL5741) MITC95 greater than or equal to 20 µM?
Data returned: no

Data request: Has NS(=O)(=O)c1cccc(C#CCN2CCC(=O)CC2)c1-c1nn[nH]n1 a recorded Serratia marcescens expressing IMP-1 (CL5741) MITC95 greater than or equal to 20 µM?
Data returned: yes

Data request: Has C[C@H]1NC(=O)O[C@H]1c1ccc(-c2cccc(S(N)(=O)=O)c2-c2nnn[nH]2)cc1 a recorded Serratia marcescens expressing IMP-1 (CL5741) MITC95 greater than or equal to 20 µM?
Data returned: no

Data request: Has NS(=O)(=O)c1cccc(-c2ccc(C3(C(F)(F)F)OCCO3)nc2)c1-c1nn[nH]n1 a recorded Serratia marcescens expressing IMP-1 (CL5741) MITC95 greater than or equal to 20 µM?
Data returned: no

Data request: Has NS(=O)(=O)c1cccc(C2CC2)c1-c1nnn[nH]1 a recorded Serratia marcescens expressing IMP-1 (CL5741) MITC95 greater than or equal to 20 µM?
Data returned: no

Data request: Has C[N+]1(C)CCC(c2ccc(-c3cccc(S(N)(=O)=O)c3-c3nnn[nH]3)cc2)CC1.O=C([O-])C(F)(F)F a recorded Serratia marcescens expressing IMP-1 (CL5741) MITC95 greater than or equal to 20 µM?
Data returned: no

Data request: Has COC(=O)N1CCC(c2ccc(-c3cccc(S(N)(=O)=O)c3-c3nnn[nH]3)cc2)CC1 a recorded Serratia marcescens expressing IMP-1 (CL5741) MITC95 greater than or equal to 20 µM?
Data returned: no

Data request: Has CS(=O)(=O)N1CCC(c2cccc(S(N)(=O)=O)c2-c2nn[nH]n2)CC1 a recorded Serratia marcescens expressing IMP-1 (CL5741) MITC95 greater than or equal to 20 µM?
Data returned: no

Data request: Has NS(=O)(=O)c1cccc(-c2csc(CN3CCOCC3)c2)c1-c1nn[nH]n1 a recorded Serratia marcescens expressing IMP-1 (CL5741) MITC95 greater than or equal to 20 µM?
Data returned: no

Data request: Has NS(=O)(=O)c1nccc(-c2ccc(C(=O)NC3CC3)cc2)c1-c1nnn[nH]1 a recorded Serratia marcescens expressing IMP-1 (CL5741) MITC95 greater than or equal to 20 µM?
Data returned: yes

Data request: Has COc1cccc(-c2cccc(S(N)(=O)=O)c2-c2nn[nH]n2)n1 a recorded Serratia marcescens expressing IMP-1 (CL5741) MITC95 greater than or equal to 20 µM?
Data returned: yes

Data request: Has NS(=O)(=O)c1cccc(-c2ccc(C3CCNC3=O)cc2)c1-c1nnn[nH]1 (stereo not shown) a recorded Serratia marcescens expressing IMP-1 (CL5741) MITC95 greater than or equal to 20 µM?
Data returned: no

Data request: Has NS(=O)(=O)c1nccc(N2CCC(CN3CCOCC3)CC2)c1-c1nnn[nH]1 a recorded Serratia marcescens expressing IMP-1 (CL5741) MITC95 greater than or equal to 20 µM?
Data returned: no

Data request: Has NS(=O)(=O)c1cccc(-c2cnn3c2CCCC3)c1-c1nn[nH]n1 a recorded Serratia marcescens expressing IMP-1 (CL5741) MITC95 greater than or equal to 20 µM?
Data returned: no

Data request: Has NS(=O)(=O)c1nccc(N2CCCC(c3ccccn3)C2)c1-c1nnn[nH]1 (stereo not shown) a recorded Serratia marcescens expressing IMP-1 (CL5741) MITC95 greater than or equal to 20 µM?
Data returned: yes

Data request: Has NS(=O)(=O)c1cccc(-c2ccc3ccncc3c2)c1-c1nn[nH]n1 a recorded Serratia marcescens expressing IMP-1 (CL5741) MITC95 greater than or equal to 20 µM?
Data returned: no

Data request: Has NS(=O)(=O)c1cccc(-c2ccc3cn[nH]c3c2)c1-c1nn[nH]n1 a recorded Serratia marcescens expressing IMP-1 (CL5741) MITC95 greater than or equal to 20 µM?
Data returned: yes

Data request: Has CN(C)CCCOc1ccc(-c2cccc(S(N)(=O)=O)c2-c2nn[nH]n2)cn1 a recorded Serratia marcescens expressing IMP-1 (CL5741) MITC95 greater than or equal to 20 µM?
Data returned: yes

Data request: Has NS(=O)(=O)c1nccc(N2CCC(n3ccnc3)CC2)c1-c1nnn[nH]1 a recorded Serratia marcescens expressing IMP-1 (CL5741) MITC95 greater than or equal to 20 µM?
Data returned: yes
